Entries and their measured IC50 follow.
measured-on: cDNA-expressed human hepatic CYP3A4 (Homo sapiens, UniProt P08684)
Construct: purchased BD Gentest 456202
Sequence (P08684 whole entry): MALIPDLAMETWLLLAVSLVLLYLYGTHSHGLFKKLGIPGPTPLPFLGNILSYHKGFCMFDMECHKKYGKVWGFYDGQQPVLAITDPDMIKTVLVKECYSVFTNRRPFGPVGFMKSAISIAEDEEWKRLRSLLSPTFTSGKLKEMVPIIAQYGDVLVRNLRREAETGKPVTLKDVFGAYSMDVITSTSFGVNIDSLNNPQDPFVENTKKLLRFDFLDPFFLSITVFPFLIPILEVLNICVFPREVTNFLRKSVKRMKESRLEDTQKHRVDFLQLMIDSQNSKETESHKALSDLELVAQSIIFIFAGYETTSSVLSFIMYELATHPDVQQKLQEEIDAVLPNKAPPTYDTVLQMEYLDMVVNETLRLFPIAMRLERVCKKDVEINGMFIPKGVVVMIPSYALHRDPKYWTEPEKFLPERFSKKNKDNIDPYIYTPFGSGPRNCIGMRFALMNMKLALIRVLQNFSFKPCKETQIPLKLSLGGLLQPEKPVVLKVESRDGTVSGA
procedure-details: P450 CYP3A4 inhibitory activity screening (fluorescent assay, BFC substrate)
Format: in vitro ADME
experimental-conditions: fluorescent assay; read-out: CYP3A4 inhibition, IC50 (μM) fluorescent assay
Method: Assay was conducted in a 200 μL volume in 96-well microtiter plates using cDNA-expressed human hepatic CYP3A4 (supersome, BD Gentest™ #456202). 7-Benzyloxy-4-trifluoromethyl-coumarin (BFC) was used as a substrate for CYP3A4. Test articles and substrate BFC were dissolved in 100% acetonitrile. […] Thereafter, Fluorescent signal was measured using a fluorometer. BFC metabolite, 7-hydroxy-4-trifluoromethyl-coumarin, was measured using an excitation wavelength of 409 nm and an emission wavelength of 530 nm.

* C=CCN1CC(=O)N2[C@@H](Cc3ccc(O)cc3)C(=O)N(Cc3cccc4c3nnn4CC(=O)O)C[C@@H]2N1C(=O)NCc1ccccc1 | > 50 µM

Lab note: measured IC50 of C=CCN1CC(=O)N2[C@@H](Cc3ccc(O)cc3)C(=O)N(Cc3cccc4nnn(CC(=O)O)c34)C[C@@H]2N1C(=O)NCc1ccccc1 was > 50 µM

Lab note: measured IC50 of C=CCN1CC(=O)N2[C@@H](Cc3ccc(O)cc3)C(=O)N(Cc3cccc4nnn(CC(N)=O)c34)C[C@@H]2N1C(=O)NCc1ccccc1 was 33.2 µM
